Values compiled from ChEMBL document CHEMBL1136693.

target desc: Protein farnesyltransferase (Mus musculus, UniProt Q61239+Q8K2I1)
assay explanation: Inhibition of Ras farnesylation in Human Ha-Ras-transformed BALB/c 3T3 cells
quantity name: pEC50
Convention used: pEC50 is expressed as -log10 of the molar concentration.

chemical smiles: CCCCN(CCC1CCCCC1)Cc1ccc(C(=O)N[C@@H](CCSC)C(=O)O)c(-c2ccccc2C)c1
target desc: Protein farnesyltransferase (Mus musculus, UniProt Q61239+Q8K2I1)
pEC50: 7.80

Dear colleague, please send me the reported pEC50 for Cn1cncc1C[C@@H](NCc1ccc(C#N)cc1)C(=O)N1CCC(C#N)=C(c2cccc3ccccc23)C1 when you can.
6.72

====

Let's look at some compounds and their measured log10(IC50).
target desc: Protein farnesyltransferase (Homo sapiens, UniProt P49354+P49356)
assay explanation: In vitro inhibitory activity against farnesyl transferase
Kindly note that the scale is log10 and the underlying IC50 is in nM.

See these solved cases before continuing.
compound: CSCC[C@H](NC(=O)C1=C(c2ccccc2C)CN(C(=O)N(Cc2ccccc2)Cc2cncs2)CC1)C(=O)O
target desc: Protein farnesyltransferase (Homo sapiens, UniProt P49354+P49356)
quantity name: log10(IC50)
val: -0.25
--
compound: Cn1cncc1CN(CC(=O)N1CCC(C#N)=C(c2cccc3ccccc23)C1)Cc1ccc(C#N)cc1
target desc: Protein farnesyltransferase (Homo sapiens, UniProt P49354+P49356)
quantity name: log10(IC50)
val: 2.75
--
compound: Cn1cncc1CN[C@H](Cc1ccc(C#N)cc1)C(=O)N1CCC(C#N)=C(c2cccc3ccccc23)C1
target desc: Protein farnesyltransferase (Homo sapiens, UniProt P49354+P49356)
quantity name: log10(IC50)
val: 2.38

Dear colleague, please send me the reported log10(IC50) for Cn1cncc1CN(CC(=O)N1CCC(C#N)=C(c2cccc3ccccc23)C1)Cc1ccccc1 when you can.
2.45

Dear colleague, please send me the reported log10(IC50) for CSCC[C@H](NC(=O)C1=C(c2ccccc2C)CN(C(=O)OC(CCC2CCCCC2)c2cncs2)CC1)C(=O)O (some centres not stated) when you can.
-0.15

Dear colleague, please send me the reported log10(IC50) for Cn1cncc1C[C@H](NCc1ccc(C#N)cc1)C(=O)N1CCC(C#N)=C(c2cccc3ccccc23)C1 when you can.
2.11

Dear colleague, please send me the reported log10(IC50) for Cn1cncc1CN[C@@H](Cc1ccc(C#N)cc1)C(=O)N1CCC(C#N)=C(c2cccc3ccccc23)C1 when you can.
2.49

====

target desc: Geranylgeranyl transferase type I (Homo sapiens, UniProt P49354+P53609)
assay explanation: In vitro inhibitory activity against geranylgeranyltransferase-1 (type I)
quantity name: IC50 (µM)
Your answer should be a plain number; it is taken to be in µM.

Dear colleague, please send me the reported IC50 for Cn1cncc1C[C@@H](NCc1ccc(C#N)cc1)C(=O)N1CCC(C#N)=C(c2cccc3ccccc23)C1 when you can.
3.5
